Would you kindly list MIC90 for each of these compounds?
- System: Staphylococcus aureus
- method: Antibacterial activity against ciprofloxacin-resistant Staphylococcus aureus by broth microdilution method
- Type: functional
Answers are plain numbers, in µg/mL.

Input line: // fetch MIC90 for `C[C@@H]1CN2c3ccc([N+](=O)[O-])cc3CC3(C(=O)NC(=O)NC3=O)[C@H]2[C@H](C)O1` ; system: Staphylococcus aureus
Output line: 0.5

// next item, MIC90 requested
Input line: Fetch value of MIC90 on Staphylococcus aureus for CC1CN2c3ccc([N+](=O)[O-])cc3CC3(C(=O)NC(=O)NC3=O)C2C(C)O1 (racemic) .
Output line: 1

---

- System: Staphylococcus aureus
- method: Antimicrobial activity against Staphylococcus aureus 286607-R1 by broth microdilution method
- Assay type: functional
The label met is reserved for MIC strictly under 4 µg/mL; not met covers values equal to or above it.

Input line: Could you please tell me whether MIC recorded for `O=C(O)c1cn(C2CC2)c2cc(N3CCNCC3)c(F)cc2c1=O` is less than 4 µg/mL?
Output line: met

Input line: Threshold test, MIC < 4 µg/mL: `CCn1cc(C(=O)O)c(=O)c2cc(F)c(N3CCNCC3)cc21`
Output line: met

Input line: Does the reported MIC of `CCn1cc(C(=O)O)c(=O)c2ccc(C)nc21` stay below 4 µg/mL?
Output line: not met

Input line: API: query returns whether the compound falls strictly under 4 µg/mL in MIC. Query: `CC(=O)NC[C@H]1CN(c2ccc(N3CCOCC3)c(F)c2)C(=O)O1`
Output line: met

Input line: Say whether its MIC is strictly beneath 4 µg/mL. Entry: `CN[C@@H]1[C@H](O)[C@H](NC)[C@H]2O[C@@]3(O)C(=O)C[C@@H](C)O[C@H]3O[C@@H]2[C@H]1O`
Output line: not met

Next:
Input line: # check: MIC < 4 µg/mL for `CO[C@H]1/C=C/O[C@@]2(C)Oc3c(C)c(O)c4c(O)c(c(/C=N/N5CCN(C)CC5)c(O)c4c3C2=O)NC(=O)/C(C)=C\C=C\[C@H](C)[C@H](O)[C@@H](C)[C@@H](O)[C@@H](C)[C@H](OC(C)=O)[C@@H]1C`
Output line: met

Input line: Determine whether this compound shows MIC lower than 4 µg/mL (ties excluded): `O=C(N[C@H](CO)[C@H](O)c1ccc([N+](=O)[O-])cc1)C(Cl)Cl`
Output line: not met

Input line: Threshold test, MIC < 4 µg/mL: CC1CN2c3ccc([N+](=O)[O-])cc3CC3(C(=O)NC(=O)NC3=O)C2C(C)O1 (racemic)
Output line: not met

Input line: Is it true that MIC reported for `CC[C@H]1OC(=O)[C@H](C)[C@@H](O[C@H]2C[C@@](C)(OC)[C@@H](O)[C@H](C)O2)[C@H](C)[C@@H](O[C@@H]2O[C@H](C)C[C@H](N(C)C)[C@H]2O)[C@](C)(O)C[C@@H](C)C(=O)[C@H](C)[C@@H](O)[C@]1(C)O` is less than 4 µg/mL?
Output line: met

Input line: is_below(MIC, 4 µg/mL) for `CN(C)[C@@H]1C(O)=C(C(N)=O)C(=O)[C@@]2(O)C(O)=C3C(=O)c4c(O)cccc4[C@@](C)(O)[C@H]3C[C@@H]12` ?
Output line: met
